Reference source for all entries: patent US20130303479A1

- Test system: HIV
- assay_explanation: EC50 stated in embodiments, test not specified
- Assay type: cell-based
- assay_conditions: Human immunodeficiency virus 1, one aspect of embodiments
endpoint_name: EC50

Task: Could you tell me which EC50 is on file for N=c1nc2n(cc1F)[C@@H]1O[C@H](CO)[C@@H](O)[C@@H]1O2 [AAFC, 5-fluoro-2,2′cyclocytidine] ?
Output: ~0.7 nM

* * *

- Tested on: HIV
- assay_explanation: Inhibition of HIV replication in experimental T cell cancer lines
- Type: cell-based
- assay_conditions: Human immunodeficiency virus 1, read-out: EC50, inhibition of HIV replication; experimental T cell cancer lines
pEC50: −log10 of the molar value.
endpoint_name: pEC50

Task: Field request: pEC50 | item: N=c1nc2n(cc1F)[C@@H]1O[C@H](CO)[C@@H](O)[C@@H]1O2
Output: > 6.30
